- Tested on: antibody derived from Immunogen of Example 9
- Assay overview: Competitive immunoassay (ELISA), IC50 derivation and cross-reactivity
- Type: binding, sheep
- Conditions: "does not bind" = cross-reactivity of less than 2% vs 100% for AKB48 under Example 12 conditions
Assay readout: binding to the antibodies of the invention

// below: answered molecules
O=C(O)CCCCn1nc(C(=O)NC23CC4CC(CC(C4)C2)C3)c2ccccc21 = do not bind
CC1(C)C(C(=O)c2cn(CCCCCF)c3ccccc23)C1(C)C = do not bind
O=C(c1cccc2ccccc12)c1cn(CCN2CCOCC2)c2ccccc12 = do not bind
CCCCCn1cc(C(=O)Cc2ccccc2Cl)c2ccccc21 = does not bind
CCCCCn1cc(C(=O)Oc2cccc3cccnc23)c2ccccc21 = does not bind

Incoming: // Input: CCCCCn1cc(C(=O)C2C(C)(C)C2(C)C)c2ccccc21 . Output its binding to the antibodies of the invention only.
Outgoing: do not bind

Incoming: Find the measured binding to the antibodies of the invention of O=C(O)CCCCn1cc(C(=O)NC23CC4CC(CC(C4)C2)C3)c2ccccc21 and report it.
Outgoing: do not bind

Incoming: // fetch binding to the antibodies of the invention given entry CCCCn1cc(C(=O)c2cccc3ccccc23)c2ccccc21
Outgoing: do not bind

Incoming: Name the recorded binding to the antibodies of the invention of the molecule listed here: CCCCCn1cc(C(=O)c2ccc(OC)cc2)c2ccccc21
Outgoing: does not bind

---

- Tested on: antibody derived from Immunogen of Example 9
- Assay overview: Competitive immunoassay (ELISA), IC50 derivation and cross-reactivity
- Type: binding, sheep
- Conditions: "does not bind" = cross-reactivity of less than 2% vs 100% for AKB48 under Example 12 conditions
Assay readout: binding to the antibodies of the invention

O=C(c1ccccc1I)c1cn(CCCCCF)c2ccccc12 [AM-694] = does not bind
COc1ccccc1CC(=O)c1cn(CCC2CCCCC2)c2ccccc12 [RCS-8] = does not bind
CN1CCCCC1Cn1cc(C(=O)C23CC4CC(CC(C4)C2)C3)c2ccccc21 (stereo not drawn) [AM-1248] = does not bind
COc1ccccc1CC(=O)c1cn(CCCCCO)c2ccccc12 [JWH-250 N-(5-Hydroxypentyl)] = do not bind
COc1ccccc1CC(=O)c1cn(CCCCCC(=O)O)c2ccccc12 [JWH-250 N-(5-Carboxypentyl)] = do not bind
O=C(O)CCCCn1cc(C(=O)C23CC4CC(CC(C4)C2)C3)c2ccccc21 [AB001 N-Pentanoic Acid] = do not bind
CCCCCn1nc(C(=O)N[C@H](C(N)=O)C(C)C)c2ccccc21 [AB Pinaca] = does not bind
CCCCCn1cc(C(=O)c2cccc3ccccc23)c2ccccc21 [JWH-018] = do not bind

Shift focus to the following entry.
Incoming: Enter measured binding to the antibodies of the invention, system antibody derived from Immunogen of Example 9, for the compound shown: O=C(c1cn(CCCCCO)c2ccccc12)C12CC3CC(CC(C3)C1)C2 [AB001 N-Pentanol]
Outgoing: do not bind

Values from patent US10591497B2
